- Tested target: UniProt O96017
- Sequence (O96017 whole entry): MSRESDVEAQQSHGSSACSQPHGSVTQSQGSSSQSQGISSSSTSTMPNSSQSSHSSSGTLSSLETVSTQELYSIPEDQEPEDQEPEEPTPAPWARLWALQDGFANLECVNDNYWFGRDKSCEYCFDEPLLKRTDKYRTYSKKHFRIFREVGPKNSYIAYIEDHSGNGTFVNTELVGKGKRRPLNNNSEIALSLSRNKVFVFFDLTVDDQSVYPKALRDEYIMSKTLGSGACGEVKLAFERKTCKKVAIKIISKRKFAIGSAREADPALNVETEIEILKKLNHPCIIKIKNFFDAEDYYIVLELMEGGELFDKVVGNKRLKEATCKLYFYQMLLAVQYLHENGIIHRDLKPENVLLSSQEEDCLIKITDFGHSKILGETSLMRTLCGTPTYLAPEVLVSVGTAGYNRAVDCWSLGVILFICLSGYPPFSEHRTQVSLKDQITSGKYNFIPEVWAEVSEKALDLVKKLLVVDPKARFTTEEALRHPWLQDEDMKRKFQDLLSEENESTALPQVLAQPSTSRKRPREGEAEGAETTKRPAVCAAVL
- Measurement notes: In vitro kinase assay, Chk2
- Assay type: biochemical
- Test conditions: full length Chk2
Reported metric: IC50 (nM)
Express your answer in nM, writing the number without its unit.

Query block: So what does the record say about IC50 for `CN(C)CC(C)(C)COc1ccc2[nH]c(-c3cc(NC(=O)c4cnn(Cc5ccccc5)c4)c[nH]c3=O)cc2c1` ?
Result block: 4.5

###

- Measurement notes: Plasma pharmacokinetics, IV bolus
- Type: in vivo
- Test conditions: female, Balb/C, mouse, 10 mg/kg IV, read-out: Vss
- Procedure: Dosing of animals and collection of samples was conducted by Quotient Bioresearch (Rushden) Ltd, UK. V158411 was administered by intravenous (IV) bolus injection to female Balb/C mice, male Sprague-Dawley rats or male beagle dogs. […] The ratios of analyte against IS peak areas were calculated, and concentrations derived from calibration lines generated by Quanlynx (Waters Ltd.). Pharmacokinetic parameters were calculated using the software package WinNonLin (Pharsight Corp.). […]
Reported metric: Vd (L/kg)
Express your answer in L/kg, writing the number without its unit.

Query block: So what does the record say about Vd for CN(C)CC(C)(C)COc1ccc2[nH]c(-c3cc(NC(=O)c4cnn(Cc5ccccc5)c4)c[nH]c3=O)cc2c1 [V158411] ?
Result block: 3.3

###

- Measurement notes: Pharmacokinetics of V158411 and irinotecan, single and combination administration
- Format: in vivo
- Test conditions: female, Balb/C, mouse, plasma, other: irinotecan intraperitoneal, V158411 intravenous
Reported metric: half-life
Answer format: number, then unit.

Query block: So what does the record say about half-life for `CN(C)CC(C)(C)COc1ccc2[nH]c(-c3cc(NC(=O)c4cnn(Cc5ccccc5)c4)c[nH]c3=O)cc2c1` ?
Result block: 3.3 h

###

- Measurement notes: Plasma pharmacokinetics, IV bolus
- Assay type: in vivo
- Test conditions: male, Sprague-Dawley, rat, 10 mg/kg IV
Reported metric: AUC(0-t)
Answer format: number, then unit.

Query block: So what does the record say about AUC(0-t) for `CN(C)CC(C)(C)COc1ccc2[nH]c(-c3cc(NC(=O)c4cnn(Cc5ccccc5)c4)c[nH]c3=O)cc2c1` ?
Result block: 6910 ng·h/mL

###

- Measurement notes: Pharmacokinetics of V158411 and irinotecan, single and combination administration
- Type: in vivo
- Test conditions: female, Balb/C, mouse, plasma, other: V158411 intravenous, irinotecan intraperitoneal; read-out: CL or CL/F
Reported metric: CL/F (mL/min/kg)
Express your answer in mL/min/kg, writing the number without its unit.

Query block: So what does the record say about CL/F for CN(C)CC(C)(C)COc1ccc2[nH]c(-c3cc(NC(=O)c4cnn(Cc5ccccc5)c4)c[nH]c3=O)cc2c1 [V158411] ?
Result block: 17.7

###

- Measurement notes: Pharmacokinetics of V158411 and irinotecan, single and combination administration
- Assay type: in vivo
- Test conditions: female, Balb/C, mouse, plasma, other: V158411 intravenous, irinotecan intraperitoneal
Reported metric: half-life (h)
Express your answer in h, writing the number without its unit.

Query block: So what does the record say about half-life for `CN(C)CC(C)(C)COc1ccc2[nH]c(-c3cc(NC(=O)c4cnn(Cc5ccccc5)c4)c[nH]c3=O)cc2c1` ?
Result block: 3.4

###

- Measurement notes: Plasma and tumor pharmacokinetics in HT29 tumor bearing mice
- Format: in vivo
- Test conditions: mouse, plasma; HT29 tumor bearing mice, 30 mg/kg IV; read-out: volume of distribution
Reported metric: Vd (L/kg)
Express your answer in L/kg, writing the number without its unit.

Query block: So what does the record say about Vd for `CN(C)CC(C)(C)COc1ccc2[nH]c(-c3cc(NC(=O)c4cnn(Cc5ccccc5)c4)c[nH]c3=O)cc2c1` ?
Result block: 2.5
